condition.set: in n-propanol, 298.15 K

test.smiles: NC(N)=S
solubility (mole fraction): 0.025

* * *

condition.set: in n-propanol, 293.15 K
quantity.name: solubility (mole fraction)

test.smiles: NC(N)=S
recorded.result: 0.0222

* * *

condition.set: in n-propanol, 288.15 K

test.smiles: NC(N)=S
solubility (mole fraction): 0.0206

* * *

condition.set: in n-propanol, 303.15 K

test.smiles: NC(N)=S
solubility (mole fraction): 0.027

* * *

condition.set: in n-propanol, 308.15 K
quantity.name: solubility (mole fraction)

test.smiles: NC(N)=S
recorded.result: 0.0315

* * *

condition.set: in ethanol, 298.15 K
quantity.name: solubility (mole fraction)

test.smiles: NC(N)=S
recorded.result: 0.025
